- Target or test system: CYP46A1 (Homo sapiens)
- Procedure details: CYP46A1 Enzyme Assay 2 (testosterone substrate, HPLC-MS)
- Assay type: biochemical
- Measurement parameters: read-out: IC50 (CYP46A1 inhibitory activity)
Measure name: IC50

Query :: Can you look up the measured IC50 of N#CC1(Cc2cccc(F)c2)CCN(C(=O)c2cccnc2-c2ccncc2)CC1 for me?
Result :: < 100 nM

Query :: What do you have for N#CC1(Cc2ccc(F)cc2C2CC2)CCN(C(=O)c2cccnc2-c2ccncn2)CC1 ?
Result :: < 100 nM

Query :: Consider next the compound N#CC1(Cc2cccc3ccccc23)CCN(C(=O)c2cccnc2-c2ccncn2)CC1 in the same way.
Result :: < 100 nM

Query :: What do you have for N#CC1(Cc2c(F)cccc2F)CCN(C(=O)c2cccnc2-c2ccncn2)CC1 ?
Result :: < 100 nM

Query :: One more compound: N#CC1(Cc2ccc(F)cc2)CCN(C(=O)c2cccnc2-c2ncncc2F)CC1
Result :: > 1000 nM

Query :: // next record N#CC1(Cc2ccc(F)c(F)c2)CCN(C(=O)c2cccnc2-c2ccncn2)CC1
Result :: < 100 nM

Query :: Next record, please: N#CC1(CC2CC(F)(F)C2)CCN(C(=O)c2cccnc2-c2ccncn2)CC1
Result :: 100 to 1000 nM

Query :: Again, but for N#CC1(Cc2cccc(Cl)c2)CCN(C(=O)c2cccnc2-c2ccncc2)CC1
Result :: < 100 nM

---

- Target or test system: CYP46A1 (Homo sapiens)
- Procedure details: CYP46A1 Enzyme Assay 2 (testosterone substrate, HPLC-MS)
- Assay type: biochemical
- Measurement parameters: read-out: IC50 (CYP46A1 inhibitory activity)
Exercise: for every item that follows, state its recorded IC50.

Query :: // IC50 lookup, key: N#CC1(Cc2ccc(F)cc2C(F)(F)F)CCN(C(=O)c2cccnc2-c2ccncn2)CC1
Result :: 100 to 1000 nM

Query :: Item: N#CC1(Cc2ccc(C3CC3)cc2)CCN(C(=O)c2cccnc2-c2ccncn2)CC1
Result :: < 100 nM

Query :: // next record C[C@@H](c1c(F)cccc1F)C1(C#N)CCN(C(=O)c2cccnc2-c2ccncn2)CC1
Result :: < 100 nM

Query :: # iterate: N#CC1(Cc2ccccc2)CCN(C(=O)c2cccnc2-c2ccncn2)CC1
Result :: < 100 nM

---

- Procedure details: Mouse pharmacokinetics
- Assay type: in vivo
- Measurement parameters: CD-1, mouse, brain and plasma; 30 mg/kg PO, mice, at 2.0 h; read-out: brain to plasma ratio
Measure name: Kp at 2 h
Enter the number alone.

Query :: What does the data say about its Kp at 2 h? Entry: N#CC1(Cc2ccc(F)cc2)CCN(C(=O)c2cccnc2-c2ccncn2)CC1 [Compound A6]
Result :: 0.41

---

- Procedure details: Mouse pharmacokinetics
- Format: in vivo
- Measurement parameters: mouse; 30 mg/kg PO, male CD-1 mice, plasma
Measure name: AUC (ng·h/mL)
// units = ng·h/mL; emit number, no label

Query :: Bench note: what AUC did N#CC1(Cc2ccc(F)cc2)CCN(C(=O)c2cccnc2-c2ccncn2)CC1 [Compound A6] show?
Result :: 14400

---

- Target or test system: CYP46A1 (Homo sapiens, UniProt Q9Y6A2)
- Sequence (Q9Y6A2 whole entry): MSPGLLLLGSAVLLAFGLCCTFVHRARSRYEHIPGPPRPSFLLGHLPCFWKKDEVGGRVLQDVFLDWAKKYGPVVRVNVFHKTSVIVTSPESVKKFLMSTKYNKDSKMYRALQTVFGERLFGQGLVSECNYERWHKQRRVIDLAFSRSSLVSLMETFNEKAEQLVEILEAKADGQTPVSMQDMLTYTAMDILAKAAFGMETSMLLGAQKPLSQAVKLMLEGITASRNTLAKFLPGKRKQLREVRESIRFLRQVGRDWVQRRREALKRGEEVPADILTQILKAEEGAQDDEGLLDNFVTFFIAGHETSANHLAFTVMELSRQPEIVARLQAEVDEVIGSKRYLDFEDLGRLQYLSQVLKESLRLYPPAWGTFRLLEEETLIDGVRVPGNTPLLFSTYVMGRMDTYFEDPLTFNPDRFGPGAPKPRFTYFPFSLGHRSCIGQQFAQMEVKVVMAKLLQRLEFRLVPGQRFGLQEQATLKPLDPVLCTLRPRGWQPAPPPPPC
- Procedure details: CYP46A1 Enzyme Assay 2 (testosterone substrate, HPLC-MS)
- Assay type: biochemical
- Measurement parameters: read-out: IC50 (CYP46A1 inhibitory activity)
pIC50: −log10 of the molar value.
Measure name: pIC50

Query :: Request the reported pIC50 associated with N#CC1(Cc2ccc(F)cc2)CCN(C(=O)c2cccnc2-c2cccnc2)CC1 [Compound A18]
Result :: < 6.00

Query :: What do you get for N#CC1(Cc2ccc(F)cc2F)CCN(C(=O)c2cccnc2-c2ccncc2)CC1 [Compound A284] ?
Result :: > 7.00

Query :: And C[C@H](c1c(F)cccc1F)C1(C#N)CCN(C(=O)c2cccnc2-c2ccncn2)CC1 [Compound A243] ?
Result :: > 7.00

Query :: Proceed to N#CC1(Cc2ccc(F)cc2)CCN(C(=O)c2cc(C3CC3)ccc2-c2ccncn2)CC1 [Compound A254]
Result :: > 7.00

---

- System: P-gp (MDR1)
- Procedure details: Compound permeability and efflux across a MDCK-MDR1 cellular membrane
- Format: in vitro ADME, canine
- Measurement parameters: dog, pH 7.4; MDCK-MDR1 cell monolayer, A to B
Measure name: Papp A→B at 2.5 h, 2 µM (×10⁻⁶ cm/s)
Entry rule: numbers only, all in ×10⁻⁶ cm/s.

Query :: Give its Papp A→B at 2.5 h, 2 µM value. Item: N#CC1(Cc2ccc(F)cc2)CCN(C(=O)c2cccnc2-c2ccncc2)CC1 [Compound A14]
Result :: 21

Query :: // next record N#CC1(Cc2ccc(F)cc2)CCN(C(=O)c2cccnc2-c2ccncn2)CC1 [Compound A6]
Result :: 22

Query :: Also, N#CC1(Cc2ccccc2)CCN(C(=O)c2cccnc2-c2ccncc2)CC1 [Compound A32] please.
Result :: 28

---

- Target or test system: CYP46A1 (Homo sapiens)
- Procedure details: CYP46A1 Enzyme Assay 2 (testosterone substrate, HPLC-MS)
- Format: biochemical
- Measurement parameters: read-out: IC50 (CYP46A1 inhibitory activity)
Provide the reported IC50 of each item.

Query :: Any idea what its IC50 is? The compound is N#CC1(Cc2c(F)cc(F)cc2F)CCN(C(=O)c2cccnc2-c2ccncn2)CC1
Result :: < 100 nM

Query :: Next: N#CC1(Cc2ccc3ccccc3c2)CCN(C(=O)c2cccnc2-c2ccncn2)CC1
Result :: < 100 nM

Query :: Now try N#CC1(Cc2ccc(C(F)(F)F)cc2)CCN(C(=O)c2cccnc2-c2ccncc2)CC1 .
Result :: < 100 nM

Query :: Please give the result for N#CC1(Cc2cc(F)ccc2F)CCN(C(=O)c2cccnc2-c2ccncn2)CC1 too.
Result :: < 100 nM

Query :: What about C[C@@H](c1ccc(C(F)(F)F)cc1F)C1(C#N)CCN(C(=O)c2cccnc2-c2ccncn2)CC1 ?
Result :: < 100 nM

Query :: What do you get for N#CC1(Cc2ccc(C(F)(F)F)cn2)CCN(C(=O)c2cccnc2-c2ccncn2)CC1 ?
Result :: 100 to 1000 nM

Query :: Again, but for N#C[C@@]1(Cc2ccc(F)cc2)CCN(C(=O)c2cccnc2-c2ccncn2)C1
Result :: > 1000 nM

Query :: Note, next up: N#CC1(Cc2ccc(C(F)(F)F)cc2F)CCN(C(=O)c2cccnc2-c2ccncc2)CC1
Result :: < 100 nM

Query :: Next: C[C@H]1CN(C(=O)c2cccnc2-c2ccncn2)CC[C@]1(C#N)Cc1ccc(F)cc1
Result :: < 100 nM

Query :: // same read-out, input: N#CC1(Cc2cc(C(F)(F)F)ccc2F)CCN(C(=O)c2cccnc2-c2ccncn2)CC1
Result :: < 100 nM

Query :: Next: N#CC1(Cc2ccc(F)cc2)CCN(C(=O)c2cccnc2-n2ccnc2)CC1
Result :: > 1000 nM

Query :: Next up: N#CC1(Cc2c(F)cc(C(F)(F)F)cc2F)CCN(C(=O)c2cccnc2-c2ccncn2)CC1
Result :: < 100 nM

Query :: Would you mind doing N#CC1(Cc2ccccc2)CCN(C(=O)c2cccnc2-c2ccncc2)CC1 as well?
Result :: < 100 nM

Query :: And the next one, N#CC1(Cc2ccc(F)cc2)CCN(C(=O)c2cccnc2-c2ccncc2)CC1 ?
Result :: < 100 nM

Query :: Likewise for N#CC1(Cc2ccc(OC(F)(F)F)cc2)CCN(C(=O)c2cccnc2-c2ccncc2)CC1 ?
Result :: < 100 nM

Query :: How about N#CC1(Cc2cccc(C3CC3)c2)CCN(C(=O)c2cccnc2-c2ccncn2)CC1 ?
Result :: < 100 nM

---

- System: P-gp (MDR1)
- Procedure details: Compound permeability and efflux across a MDCK-MDR1 cellular membrane
- Assay type: in vitro ADME, canine
- Measurement parameters: dog, pH 7.4; MDCK-MDR1 cell monolayer; read-out: MDCK Effux Ratio (B:A/A:B)
Provide the recorded efflux ratio at 2.5 h, 2 μM for the entries that follow.
No unit in the answer, please; the number alone is enough.

Query :: Entry N#CC1(Cc2ccc(F)cc2)CCN(C(=O)c2cccnc2-c2ccncn2)CC1 [Compound A6] has what efflux ratio at 2.5 h, 2 μM?
Result :: 1.4

Query :: Cool, now N#CC1(Cc2ccccc2)CCN(C(=O)c2cccnc2-c2ccncc2)CC1 [Compound A32]
Result :: 1.2

Query :: Consider next the compound N#CC1(Cc2ccc(F)cc2)CCN(C(=O)c2cccnc2-c2ccncc2)CC1 [Compound A14] in the same way.
Result :: 1.2

---

- Target or test system: CYP46A1 (Homo sapiens)
- Procedure details: CYP46A1 Enzyme Assay 2 (testosterone substrate, HPLC-MS)
- Assay type: biochemical
- Measurement parameters: read-out: IC50 (CYP46A1 inhibitory activity)
Provide the recorded IC50 for the entries that follow.

Query :: Please report the recorded IC50 for CC(c1c(F)cc(F)cc1F)C1(C#N)CCN(C(=O)c2cccnc2-c2ccncn2)CC1 (stereo in doubt) [Compound A270] .
Result :: < 0.1 µM

Query :: One more compound: Cc1ccc(CC2(C#N)CCN(C(=O)c3cccnc3-c3ccncn3)CC2)cn1
Result :: < 0.1 µM

Query :: Input CC[C@@H](c1ccc(F)cc1)C1(C#N)CCN(C(=O)c2cccnc2-c2ccncn2)CC1
Result :: < 0.1 µM

Query :: Again, but for C[C@H](c1ccc(F)cc1F)C1(C#N)CCN(C(=O)c2cccnc2-c2ccncn2)CC1
Result :: < 0.1 µM

Query :: Next up: N#CC1(Cc2c(F)cc(C(F)(F)F)cc2F)CCN(C(=O)c2cccnc2-c2ccncc2)CC1
Result :: < 0.1 µM

Query :: And N#CC1(CCCc2ccccc2)CCN(C(=O)c2cccnc2-c2ccncc2)CC1 ?
Result :: < 0.1 µM

Query :: And for N#CC1(Cc2ccc(F)cc2)CCN(C(=O)c2cc(Cl)ccc2-c2ccncn2)CC1 ?
Result :: < 0.1 µM

Query :: Please give the result for N#CC1(Cc2cccc(C(F)(F)F)c2F)CCN(C(=O)c2cccnc2-c2ccncn2)CC1 too.
Result :: < 0.1 µM

Query :: Another: N#CC1(Cc2ccc(F)cc2)CCN(C(=O)c2ccccc2-c2ccncn2)CC1
Result :: < 0.1 µM

Query :: What about N#CC1(Cc2cccnc2)CCN(C(=O)c2cccnc2-c2ccncc2)CC1 ?
Result :: 0.1 to 1 µM

Query :: Check N#CC1(Cc2ccc(C3CC3)cn2)CCN(C(=O)c2cccnc2-c2ccncn2)CC1 too.
Result :: 0.1 to 1 µM

Query :: # repeat for N#CC1(Cc2ccc(F)cc2C(F)(F)F)CCN(C(=O)c2cccnc2-c2ccncc2)CC1
Result :: < 0.1 µM

Query :: Same thing, different compound: N#CC1(Cc2cccc(Cl)c2)CCN(C(=O)c2cccnc2-c2ccncn2)CC1
Result :: < 0.1 µM

Query :: And N#CC1(Cc2ccc(OC(F)(F)F)cc2)CCN(C(=O)c2cccnc2-c2ccncn2)CC1 ?
Result :: < 0.1 µM

Query :: Same for N#CC1(Cc2ccncc2)CCN(C(=O)c2cccnc2-c2ccncc2)CC1
Result :: 0.1 to 1 µM

Query :: Also, CS(=O)(=O)c1ccc(CC2(C#N)CCN(C(=O)c3cccnc3-c3ccncn3)CC2)cc1 please.
Result :: 0.1 to 1 µM

Query :: One more compound: N#CC1(Cc2cc(F)cc(F)c2)CCN(C(=O)c2cccnc2-c2ccncn2)CC1
Result :: < 0.1 µM

Query :: Then this compound: N#CC1(Cc2ccc(F)c(C(F)(F)F)c2)CCN(C(=O)c2cccnc2-c2ccncn2)CC1
Result :: < 0.1 µM

Query :: Next record, please: N#CC1(Cc2cccc(F)c2F)CCN(C(=O)c2cccnc2-c2ccncn2)CC1
Result :: < 0.1 µM

Query :: Cool, now CC(c1c(F)cc(F)cc1F)C1(C#N)CCN(C(=O)c2cccnc2-c2ccncn2)CC1 (stereo in doubt) [Compound A271]
Result :: < 0.1 µM

Query :: Entry N#CC1(Cc2ccccc2C2CC2)CCN(C(=O)c2cccnc2-c2ccncn2)CC1 please
Result :: < 0.1 µM

Query :: Input N#CC1(Cc2ccc(F)cc2)CCN(C(=O)c2cccnc2-c2ccnnc2)CC1
Result :: > 1 µM

Query :: What would you report for N#CC1(Cc2cccc(C(F)(F)F)c2)CCN(C(=O)c2cccnc2-c2ccncc2)CC1 ?
Result :: < 0.1 µM

Query :: Now consider C[C@@H](c1ccc(F)cc1F)C1(C#N)CCN(C(=O)c2cccnc2-c2ccncc2)CC1 and answer again.
Result :: < 0.1 µM

Query :: Query N#CC1(Cc2ccc(Cl)cc2C2CC2)CCN(C(=O)c2cccnc2-c2ccncn2)CC1 next
Result :: < 0.1 µM

Query :: For N#CC1(Cc2ccccc2C(F)(F)F)CCN(C(=O)c2cccnc2-c2ccncc2)CC1 then?
Result :: < 0.1 µM

Query :: Okay, and N#CC1(Cc2ccc(F)cc2)CCN(C(=O)c2cc(C(F)(F)F)ccc2-c2ccncn2)CC1 ?
Result :: < 0.1 µM

Query :: Check C[C@@H](c1ccc(F)cc1)C1(C#N)CCN(C(=O)c2cccnc2-c2ccncn2)CC1 too.
Result :: < 0.1 µM

Query :: Please give the result for CC(c1cc(F)cc(F)c1)C1(C#N)CCN(C(=O)c2cccnc2-c2ccncn2)CC1 (stereo in doubt) [Compound A258] too.
Result :: < 0.1 µM

Query :: Similarly, N#CC1(Cc2ccc(F)cc2)CCN(C(=O)c2cccnc2-c2cnco2)CC1 ?
Result :: 0.1 to 1 µM

Query :: Next entry: N#CC1(Cc2ccc(F)cc2)CCN(C(=O)c2cccnc2-n2cncn2)CC1
Result :: > 1 µM

Query :: Same read-out for N#CC1(Cc2cc(F)cc(F)c2)CCN(C(=O)c2cccnc2-c2ccncc2)CC1 ?
Result :: < 0.1 µM

Numbers sourced from patent US20220332699A1.
